- experimental system: Cytochrome P450 3A4 (Homo sapiens) (UniProt P08684)
- Sequence (P08684 whole entry, looked up): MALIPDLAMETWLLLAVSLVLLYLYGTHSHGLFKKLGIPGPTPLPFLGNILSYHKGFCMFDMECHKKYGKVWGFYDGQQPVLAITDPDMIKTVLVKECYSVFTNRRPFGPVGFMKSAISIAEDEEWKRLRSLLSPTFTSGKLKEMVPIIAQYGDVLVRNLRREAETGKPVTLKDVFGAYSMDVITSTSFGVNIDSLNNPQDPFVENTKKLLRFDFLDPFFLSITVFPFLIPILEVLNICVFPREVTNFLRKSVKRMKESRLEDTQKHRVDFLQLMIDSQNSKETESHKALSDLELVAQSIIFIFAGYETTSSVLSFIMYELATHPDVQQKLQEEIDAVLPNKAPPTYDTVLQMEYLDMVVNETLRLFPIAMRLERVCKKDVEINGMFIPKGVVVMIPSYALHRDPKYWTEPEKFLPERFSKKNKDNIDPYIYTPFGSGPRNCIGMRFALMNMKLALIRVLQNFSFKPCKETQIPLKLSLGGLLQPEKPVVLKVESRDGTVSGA
- assay protocol: qHTS Assay for Activators of Cytochrome P450 3A4 (AID 885); also: nearly all actives have a fitted effect of over 65% in size
- condition details: recombinant CYP3A4, Luciferin-PPXE luminescence, 60 min; series mostly up to 57.1 µM
Activity calls are given as the source filed them. Calls follow the shape of the dose curve; as a rule, active = well fitted activation curve with a large enough effect; inconclusive = small, poorly fitted or top-dose-only effect; inactive = no such curve, though single readings can be large or run the other way.
experimental endpoint: outcome

compound=CCN(CC)CCOC(=O)C1(C2CCCCC2)CCCCC1 result_value=inactive
compound=CNCCCC1c2ccccc2C=Cc2ccccc21 result_value=inactive
compound=COc1ccc2c(c1)C(=O)N(CCc1ccc(S(=O)(=O)NC(=O)NC3CCCCC3)cc1)C(=O)C2(C)C result_value=inactive
compound=CC1=C(CC(=O)O)c2cc(F)ccc2/C1=C\c1ccc(S(C)(=O)=O)cc1 result_value=inactive
compound=Cc1cc(N)c2ccccc2[n+]1CCCCCCCCCC[n+]1c(C)cc(N)c2ccccc21 result_value=inactive
compound=Oc1cccc(O)c1 result_value=inactive
compound="CCN(CC)CCCC(C)Nc1c2ccc(Cl)cc2nc2ccc(OC)cc12 (stereo not drawn)" result_value=inactive
compound="CCN(CC)C(C)CN1c2ccccc2Sc2ccccc21 (stereo not drawn)" result_value=inactive

Where do the numbers come from? From PubChem BioAssay (NCATS).
